Values from ChEMBL document CHEMBL6153049

- EXPERIMENTAL PROTOCOL: Cytotoxicity against rat NRK cells assessed as inhibition of cell viability measured after 24 hrs by WST-1 assay
- Type: toxicity, cell-based
Can you tell me IC50 at 24 h for the items I'm about to list?
The reply should contain only the number, in µM.

GET /values?readout=IC50 at 24 h&item= "COc1cc(OC(C)=O)c2c(c1)[n+]([O-])c1ccccc1[n+]2[O-]"
36

GET /values?readout=IC50 at 24 h&item= "COc1cccc2c1[n+]([O-])c1ccccc1[n+]2[O-]"
32

I would be grateful if you could share the reported IC50 at 24 h for "COc1cc(OC)c2c(c1)[n+]([O-])c1ccccc1[n+]2[O-]" .
46

Need IC50 at 24 h of "CCOC(=O)COc1cc(O)c2c(c1)[n+]([O-])c1ccccc1[n+]2[O-]" , thanks.
194

Entry "[O-][n+]1c2ccccc2[n+]([O-])c2c(O)cccc21" : reported IC50 at 24 h = ?
79

Using the record for "COc1cc(O)c2c(c1)[n+]([O-])c1ccccc1[n+]2[O-]" , report its IC50 at 24 h.
38

---

Would you mind telling me the reported IC50 at 24 h of each entry?
- EXPERIMENTAL PROTOCOL: Cytotoxicity against rat H9c2 cells assessed as inhibition of cell viability measured after 24 hrs by WST-1 assay
- Assay type: toxicity, cell-based

Recorded IC50 at 24 h of "COCOc1cc(O)c2c(c1)[n+]([O-])c1ccccc1[n+]2[O-]" , please.
> 50 µM

Endpoint output: IC50 at 24 h of "CCOCOc1cc(O)c2c(c1)[n+]([O-])c1ccccc1[n+]2[O-]" . Value?
> 25 µM

For the molecule "CCOC(=O)COc1cc(OCC(=O)OCC)c2c(c1)[n+]([O-])c1ccccc1[n+]2[O-]" , what IC50 at 24 h is on record?
> 200 µM

Which IC50 at 24 h reading was recorded for the molecule "CCOCOc1cc(OC)c2c(c1)[n+]([O-])c1ccccc1[n+]2[O-]" ?
> 25 µM

Field request: IC50 at 24 h | item: "COc1cc(O)cc2c1[n+]([O-])c1ccccc1[n+]2[O-]"
> 200 µM

// IC50 at 24 h lookup, key: "[O-][n+]1c2ccccc2[n+]([O-])c2c(O)cccc21"
> 100 µM

If you can, please state the reported IC50 at 24 h value of "[O-][n+]1c2cccc(O)c2[n+]([O-])c2cccc(O)c21" .
> 50 µM

---

- EXPERIMENTAL PROTOCOL: Cytotoxicity against rat NRK cells assessed as inhibition of cell viability measured after 24 hrs by WST-1 assay
- Format: toxicity, cell-based
Task for the reader: assign each of the following compounds its reported IC50 at 24 h.

// query IC50 at 24 h value for entry "[O-][n+]1c2cccc(O)c2[n+]([O-])c2cccc(O)c21"
> 50 µM

Query: IC50 at 24 h; subject: "COc1cc(O)cc2c1[n+]([O-])c1ccccc1[n+]2[O-]"
> 100 µM

Would you kindly share the measured IC50 at 24 h for "CCOCOc1cc(O)c2c(c1)[n+]([O-])c1ccccc1[n+]2[O-]" ?
> 25 µM

Recorded IC50 at 24 h for "CCOC(=O)COc1cc(OCC(=O)OCC)c2c(c1)[n+]([O-])c1ccccc1[n+]2[O-]" , please?
> 200 µM
